Each item that follows carries a reported EC50.
Target: V. cholerae CqsS receptor (Vibrio cholerae serotype O1, UniProt Q9KM66)
Sequence (Q9KM66 whole entry, looked up): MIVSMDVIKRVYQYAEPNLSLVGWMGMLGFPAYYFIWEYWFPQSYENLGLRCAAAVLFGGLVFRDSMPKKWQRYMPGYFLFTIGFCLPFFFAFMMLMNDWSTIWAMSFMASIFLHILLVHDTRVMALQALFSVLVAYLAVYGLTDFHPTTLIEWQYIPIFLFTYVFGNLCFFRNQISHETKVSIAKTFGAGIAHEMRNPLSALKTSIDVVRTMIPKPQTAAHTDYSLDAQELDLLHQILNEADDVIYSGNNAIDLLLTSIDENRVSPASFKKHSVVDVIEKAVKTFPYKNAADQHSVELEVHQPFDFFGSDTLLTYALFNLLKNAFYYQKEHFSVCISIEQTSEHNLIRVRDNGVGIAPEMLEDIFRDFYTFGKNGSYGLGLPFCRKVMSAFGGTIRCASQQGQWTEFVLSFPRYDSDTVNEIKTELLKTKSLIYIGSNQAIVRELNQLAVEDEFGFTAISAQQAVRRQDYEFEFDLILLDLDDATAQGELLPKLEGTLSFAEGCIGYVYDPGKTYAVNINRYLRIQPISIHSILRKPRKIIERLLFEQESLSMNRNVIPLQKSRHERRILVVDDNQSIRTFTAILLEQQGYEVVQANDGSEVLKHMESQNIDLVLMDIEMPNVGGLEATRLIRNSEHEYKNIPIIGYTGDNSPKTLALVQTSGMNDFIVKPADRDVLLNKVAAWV
Experiment: CqsS agonist bioassay (V. cholerae reporter strain MM920, bioluminescence)
Details: EC50, QS agonist activity, reporter strain MM920, 4-hour incubation at 30° C.; mean of triplicate analyses
Value expressed in nM; do not type the unit.

Observe how each entry below is paired with its result.
C/C=C(\N)C(=O)CCCCC [Compound 6, (Z)-3-aminonon-2-en-4-one]	590
C/C=C(\N)C(=O)CCCCCCCC [Compound 9, (Z)-3-aminododec-2-en-4-one]	2.6

Now look at this entry.
Incoming: Query (compound): C/C=C(\N)C(=O)CCCCCCCCC [Ea-CAI-1, (Z)-3-aminotridec-2-en-4-one, reference compound] ; field requested: EC50
Outgoing: 4.1

====

Target: V. cholerae CqsS receptor (Vibrio cholerae serotype O1, UniProt Q9KM66)
Test: CqsS agonist bioassay (V. cholerae reporter strain MM920, bioluminescence)
Details: EC50, complete bioassay data; mean of triplicate analyses, error = 95% confidence interval
readout_type: EC50 (nM)
Value expressed in nM; do not type the unit.

Observe how each entry below is paired with its result.
CCCCc1ccc(/C=C/C(=O)c2cc[nH]c2)cc1	88.4
CCCCCCCCCC(=O)c1c(C)c[nH]c1C	536
CCCCCCC/C=C/C(=O)c1ccc[nH]1 [Compound 33, (E)-1-(1H-pyrrol-2-yl)dec-2-en-1-one]	288
CCCCc1ccc(/C=C/C(=O)c2ccc[nH]2)cc1	731
CCCCCCCCCC(=O)c1cc(C)[nH]c1C	679

Incoming: Query (compound): CCCCc1ccc(CCC(=O)c2ccc[nH]2)cc1 ; field requested: EC50
Outgoing: 2020

Incoming: Query (compound): O=C(CCCCCCc1ccccc1)c1cc[nH]c1 ; field requested: EC50
Outgoing: 35.8

Incoming: Query (compound): CCCCc1ccc(CCC(=O)c2cc[nH]c2)cc1 ; field requested: EC50
Outgoing: 10.9

====

Target: V. cholerae CqsS receptor (Vibrio cholerae serotype O1)
Experiment: CqsS agonist bioassay (V. cholerae reporter strain MM920, bioluminescence)
Conditions: read-out: % Response, complete bioassay data; percent maximal bioluminescence with respect to Ea-CAI-1 (100%), error = 95% confidence interval
readout_type: Emax (%)
Value expressed in %; do not type the unit.

Observe how each entry below is paired with its result.
O=C(CCCCCCc1ccccc1)c1cc[nH]c1 [Compound 28, 7-phenyl-1-(1H-pyrrol-3-yl)heptan-1-one]	75
C/C=C(\N)C(=O)CCCCCCCCC [Ea-CAI-1, (Z)-3-aminotridec-2-en-4-one, reference compound]	100
CCCCCCCCCC(=O)c1c(C)c[nH]c1C [Compound 20]	65

Incoming: Short answer please: Emax, V. cholerae CqsS receptor (Vibrio cholerae serotype O1), entry CCCCCCC/C=C/C(=O)c1ccc[nH]1 [Compound 33, (E)-1-(1H-pyrrol-2-yl)dec-2-en-1-one]
Outgoing: 109

Incoming: Short answer please: Emax, V. cholerae CqsS receptor (Vibrio cholerae serotype O1), entry C/C=C(\N)C(=O)CCCCCCCC [Compound 9, (Z)-3-aminododec-2-en-4-one]
Outgoing: 112
